Origin of values: paper PMC10397247

Catalogue of interaction score values
Molecular target: T1, 4H458-AA
T1 chain: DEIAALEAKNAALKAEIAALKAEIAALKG
Assay: two-hybrid library CCmax;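 further: natural log of median RNA to DNA barcode read ratio; higher means stronger binding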
Conditions: mean of both orientations
I'd appreciate a reply containing only the number, no unit.

Below, each entry is followed by its recorded interaction score result.
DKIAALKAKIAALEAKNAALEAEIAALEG [4H2865-AA] ... -0.6
DKIAALKAKNAALKAEIAALEAEIAALEG [4H3009-AA] ... 0.956
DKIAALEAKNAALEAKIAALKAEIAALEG [4H2473-AA] ... 1.39

[in] I am curious: what interaction score value has been reported for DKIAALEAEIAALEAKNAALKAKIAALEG [4H2109-AA] ?
[out] -1.45

[in] And for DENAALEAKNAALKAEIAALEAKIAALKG [4H1478-AA] ?
[out] -0.241

[in] And for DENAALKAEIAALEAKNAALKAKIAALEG [4H1597-AA] ?
[out] -1.71

[in] And for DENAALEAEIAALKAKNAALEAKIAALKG [4H1142-AA] ?
[out] -1.34

[in] And for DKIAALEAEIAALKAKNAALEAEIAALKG [4H2162-AA] ?
[out] -0.816
